molecular target: EGFR (Homo sapiens, UniProt P00533, DEL746-750); construct: host or cells: HCC827; experiment: EGFR PROTAC In Cell Western assay in HCC827; assay type: cell-based; conditions: HCC827, Table 4; HCC827, EGFR degradation, 16 hours of incubation
Sequence (P00533 with tags, fused parts or gaps DEL746-750): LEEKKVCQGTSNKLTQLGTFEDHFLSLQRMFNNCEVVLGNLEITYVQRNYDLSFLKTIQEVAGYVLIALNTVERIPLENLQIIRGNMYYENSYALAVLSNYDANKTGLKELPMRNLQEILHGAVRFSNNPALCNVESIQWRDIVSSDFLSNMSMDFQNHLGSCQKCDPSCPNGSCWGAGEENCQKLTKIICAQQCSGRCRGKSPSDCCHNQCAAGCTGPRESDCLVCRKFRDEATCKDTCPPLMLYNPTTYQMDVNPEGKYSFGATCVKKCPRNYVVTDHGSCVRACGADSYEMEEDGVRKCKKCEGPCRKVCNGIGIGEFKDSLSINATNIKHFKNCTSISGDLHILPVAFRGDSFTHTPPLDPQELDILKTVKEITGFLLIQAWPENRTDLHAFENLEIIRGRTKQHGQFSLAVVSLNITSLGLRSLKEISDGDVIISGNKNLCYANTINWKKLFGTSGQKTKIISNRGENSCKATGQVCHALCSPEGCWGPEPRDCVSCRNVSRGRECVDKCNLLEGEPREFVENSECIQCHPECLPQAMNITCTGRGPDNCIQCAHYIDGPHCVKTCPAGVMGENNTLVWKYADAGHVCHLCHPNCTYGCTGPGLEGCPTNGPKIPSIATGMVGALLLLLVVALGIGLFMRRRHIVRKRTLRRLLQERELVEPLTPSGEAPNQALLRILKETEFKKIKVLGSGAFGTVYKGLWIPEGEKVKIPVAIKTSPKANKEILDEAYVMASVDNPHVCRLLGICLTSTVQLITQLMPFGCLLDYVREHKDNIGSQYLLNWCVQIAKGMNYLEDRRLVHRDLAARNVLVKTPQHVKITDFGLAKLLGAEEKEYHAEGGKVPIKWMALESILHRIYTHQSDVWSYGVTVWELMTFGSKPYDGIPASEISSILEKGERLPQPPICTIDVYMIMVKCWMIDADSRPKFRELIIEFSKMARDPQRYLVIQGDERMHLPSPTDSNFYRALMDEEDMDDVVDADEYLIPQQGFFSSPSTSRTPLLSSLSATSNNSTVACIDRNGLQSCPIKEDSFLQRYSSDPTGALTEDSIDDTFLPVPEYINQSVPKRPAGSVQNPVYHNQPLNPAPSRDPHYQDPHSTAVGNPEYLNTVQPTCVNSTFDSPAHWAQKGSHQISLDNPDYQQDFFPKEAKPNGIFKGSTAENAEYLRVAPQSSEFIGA
For each record, write down the corresponding Dmax.

Known Dmax results, listed for orientation:
COc1cc(N2CC(NC(=O)CN3CCC(c4ccc(NC5CCC(=O)NC5=O)cc4)CC3)C2)ccc1Nc1ncc(Cl)c(Nc2ccccc2C(C)=O)n1 (centres unmarked): < 50%
COc1cc(N2C3CCC2CN(C(=O)CN2CCC(c4ccc(NC5CCC(=O)NC5=O)cc4)CC2)C3)ccc1Nc1ncc(Cl)c(Nc2ccccc2C(C)=O)n1 (centres unmarked): 50 to 70%
COc1cc(N2CCN(C(=O)CN3CCC(c4ccc(NC5CCC(=O)NC5=O)cc4)CC3)CC2)c(C)cc1Nc1ncc(Cl)c(Nc2ccccc2C(C)=O)n1 (centres unmarked): 50 to 70%

Each compound below has a reported value. Please supply its Dmax.
1. COc1cc(N2CCN(C(=O)CN3CCC(c4ccc(NC5CCC(=O)NC5=O)cc4)CC3)CC2)ccc1Nc1ncc(Cl)c(Nc2ccccc2C(=O)C(C)C)n1 (centres unmarked)
2. COc1cc(N2CC[C@H](N(C)C(=O)CN3CCC(c4ccc(NC5CCC(=O)NC5=O)cc4)CC3)C2)ccc1Nc1ncc(Cl)c(Nc2ccccc2C(C)=O)n1 (some centres unmarked)

1: 50 to 70%; 2: < 50%

---

For each record, write down the corresponding IC50.
Test system: H1975 (EGFR L858R/T790M double mutation)
Assay: Cell antiproliferative assay (CTG, 72 h), H1975
Type: cell-based, human
Conditions: Homo sapiens, NCI-H1975, 72 h, Table 2, H1975 cells
Description: Test Example 1 Cell Antiproliferative Assay H1975: with EGFR: L858R/T790M double mutation; PC-9 with EGFR exon 19 deletion, HCC827 with exon 19 deletion mutation. CellCounting-Lite2.0, Trypsin EDTA, 37° C. […] • (A)96-well plates were incubated in an incubator for 72 h. The effect of the compounds was observed under an inverted microscope. • (B)25 μl of CTG solution was added to each well, the plate was put on shaker for 10 minutes and the […] of each well was read. […]

Known IC50 results, listed for orientation:
COc1cc(N2CCC(N3CCN(C(=O)CCCCN4CCC(c5ccc(NC6CCC(=O)NC6=O)cc5)CC4)CC3)CC2)ccc1Nc1ncc(Cl)c(Nc2ccccc2N(C)S(C)(=O)=O)n1 (stereo not drawn): 10 to 100 nM
COc1cc(N2CCN(C(=O)CN3CCC(c4ccc(NC5CCC(=O)NC5=O)cc4)CC3)CC2)ccc1Nc1ncc(C(F)(F)F)c(Nc2ccc(F)cc2)n1 (stereo not drawn): 10 to 100 nM
COc1cc(N2CCN(C(=O)CN3CCN(c4ccc5c(c4)C(=O)N(C4CCC(=O)NC4=O)C5=O)CC3)CC2)ccc1Nc1ncc(Cl)c(Nc2ccccc2C(C)=O)n1 (stereo not drawn): 100 to 1000 nM
CNC(=O)c1ccccc1Nc1nc(Nc2cc(C)c(N3CCN(C(=O)CN4CCC(c5ccc(NC6CCC(=O)NC6=O)cc5F)CC4)CC3)cc2OC)ncc1C(F)(F)F (stereo not drawn): 10 to 100 nM
COc1cc(N2CCN(C(=O)CN3CCC(c4ccc(NC5CCC(=O)NC5=O)cc4)CC3)CC2)ncc1Nc1ncc(Cl)c(Nc2ccccc2C(C)=O)n1 (stereo not drawn): 10 to 100 nM
COc1cc(N2CCC(N(C)C(=O)C3CCN(CC4CCN(c5ccc6c(c5)C(=O)N(C5CCC(=O)NC5=O)C6=O)CC4)CC3)CC2)ccc1Nc1ncc(Cl)c(Nc2ccccc2C(C)=O)n1 (stereo not drawn): 10 to 100 nM
COc1cc(N2CCN(C(=O)CN3CCC(c4ccc(NC5CCC(=O)NC5=O)cc4)CC3)CC2)c(C)cc1Nc1ncc(Cl)c(Nc2ccccc2P(C)(C)=O)n1 (stereo not drawn): 10 to 100 nM
COc1cc(N2CCN(C(=O)CN3CCC(c4ccc5c(N6CCC(=O)NC6=O)nn(C)c5c4)CC3)CC2)ccc1Nc1ncc(Cl)c(Nc2ccccc2)n1: 10 to 100 nM

Each compound below has a reported value. Please supply its IC50.
1. CNC(=O)c1ccccc1Nc1nc(Nc2cc(C)c(N3CCN(C(=O)CN4CCC(c5ccc(NC6CCC(=O)NC6=O)cc5F)CC4)CC3)cc2OC)ncc1Cl (stereo not drawn)
2. CNC(=O)c1ccccc1Nc1nc(Nc2cc(C)c(N3CCN(C(=O)CN4CCC(c5ccc(NC6CCC(=O)NC6=O)cc5)CC4)C(C)C3)cc2OC)ncc1Cl (stereo not drawn)
3. COc1cc(N2CCN(C(=O)CN3CCN(c4ccc5c(c4)CN(C4CCC(=O)NC4=O)C5=O)CC3)CC2)ccc1Nc1ncc(Cl)c(Nc2ccccc2C(C)=O)n1 (stereo not drawn)
4. CC(=O)c1ccccc1Nc1nc(Nc2ccc(N3CCN(C(=O)CN4CCC(c5ccc(NC6CCC(=O)NC6=O)cc5)CC4)CC3)cc2OC(C)C)ncc1Cl (stereo not drawn)

1. 10 to 100 nM
2. 10 to 100 nM
3. 100 to 1000 nM
4. 100 to 1000 nM

---

System: HCC827 (exon 19 deletion mutation)
Assay: Cell antiproliferative assay (CTG, 72 h), HCC827
Assay type: cell-based, human
Conditions: Homo sapiens, HCC827, 72 h, Table 2, HCC827 cells
Method: Test Example 1 Cell Antiproliferative Assay H1975: with EGFR: L858R/T790M double mutation; PC-9 with EGFR exon 19 deletion, HCC827 with exon 19 deletion mutation. CellCounting-Lite2.0, Trypsin EDTA, 37° C. […] • (A)96-well plates were incubated in an incubator for 72 h. The effect of the compounds was observed under an inverted microscope. • (B)25 μl of CTG solution was added to each well, the plate was put on shaker for 10 minutes and the […] of each well was read. […]
property: IC50

Known IC50 results, listed for orientation:
COc1cc(N2CCN(C(=O)CN3CCC(c4ccc(NC5CCC(=O)NC5=O)cc4)CC3)CC2)c(C)cc1Nc1ncc(Cl)c(Nc2ccccc2)n1 (stereo not shown) [Compound T-122]: 100 to 1000 nM
COc1cc(N2CC[C@@H](N(C)C(=O)CN3CCC(c4ccc(NC5CCC(=O)NC5=O)cc4)CC3)C2)ccc1Nc1ncc(Cl)c(Nc2ccccc2C(C)=O)n1 (stereo partly shown) [Compound T-171]: 100 to 1000 nM
COc1cc(N2CCC(N3CCN(C(=O)CCCCN4CCN(c5ccc6c(c5)C(=O)N(C5CCC(=O)NC5=O)C6=O)CC4)CC3)CC2)ccc1Nc1ncc(Cl)c(Nc2ccccc2C(C)=O)n1 (stereo not shown) [Compound T-221]: ≥ 1000 nM
CNC(=O)c1ccccc1Nc1nc(Nc2cc(C)c(N3CCN(C(=O)CN4CCC(c5ccc(NC6CCC(=O)NC6=O)cc5F)CC4)CC3)cc2OC)ncc1Cl (stereo not shown) [Compound T-367]: 10 to 100 nM
COc1cc(N2CCN(C(=O)CN3CCC(c4ccc(NC5CCC(=O)NC5=O)cc4)CC3)CC2)ccc1Nc1ncc(Cl)c(Nc2cc(F)ccc2F)n1 (stereo not shown) [Compound T-132]: 100 to 1000 nM
CNC(=O)c1ccccc1Nc1nc(Nc2cc(C)c(N3CCN(C(=O)CN4CCC(c5ccc(NC6CCC(=O)NC6=O)cc5)CC4)CC3C)cc2OC)ncc1Br (stereo not shown) [Compound T-359]: 10 to 100 nM

Shifting focus to the compound that follows.
Query (compound): COc1cc(N2CCN(CCC3CCN(c4ccc5c(c4)C(=O)N(C4CCC(=O)NC4=O)C5=O)CC3)CC2)ccc1Nc1ncc(Cl)c(Nc2ccccc2C(C)=O)n1 (stereo not shown) [Compound T-212] ; field requested: IC50
100 to 1000 nM

---

For each record, write down the corresponding IC50.
test system: H1975 (EGFR L858R/T790M double mutation); assay: Cell antiproliferative assay (CTG, 72 h), H1975; type: cell-based, human; details: Homo sapiens, NCI-H1975, 72 h, Table 2, H1975 cells

Known IC50 results, listed for orientation:
C=CC(=O)Nc1cc(Nc2ncc(Cl)c(Nc3ccccc3C(C)=O)n2)c(OC)cc1N1CCN(C(=O)CN2CCC(c3ccc(NC4CCC(=O)NC4=O)cc3)CC2)CC1 (stereo not shown) [Compound T-91]: 10 to 100 nM
COc1cc(N2CCN(C(=O)CN3CCC(c4ccc(NC5CCC(=O)NC5=O)cc4)CC3)CC2)ccc1Nc1ncc(Cl)c(Nc2ccccc2C(C)(C)O)n1 (stereo not shown) [Compound T-196]: 10 to 100 nM
COc1cc(N2CCN(C(=O)CN3CCC(c4ccc(NC5CCC(=O)NC5=O)cc4)CC3)CC2)ccc1Nc1ncc(Cl)c(Nc2ccccc2C#N)n1 (stereo not shown) [Compound T-139]: 100 to 1000 nM
COc1cc(N2CCN(C(=O)CN3CCC(c4ccc(NC5CCC(=O)NC5=O)cc4)CC3)CC2)ccc1Nc1ncc(C(F)(F)F)c(Nc2ccccc2C(C)=O)n1 (stereo not shown) [Compound T-47]: 10 to 100 nM
COc1cc(N2CCN(C(=O)CNc3ccc4c(c3)C(=O)N(C3CCC(=O)NC3=O)C4=O)CC2)ccc1Nc1ncc(Cl)c(Nc2ccccc2C(C)=O)n1 (stereo not shown) [Compound T-230]: 100 to 1000 nM
COc1cc(N2C3CCC2CN(C(=O)CN2CCC(c4ccc(NC5CCC(=O)NC5=O)cc4)CC2)C3)ccc1Nc1ncc(Cl)c(Nc2ccccc2C(C)=O)n1 (stereo not shown) [Compound T-191]: 10 to 100 nM

Shifting focus to the molecule that follows.
Query (molecule): COc1cc(N2CCN(C(=O)CN3CCC(c4ccc(NC5CCC(=O)NC5=O)cc4)CC3)CC2)c(-c2cnn(C)c2)cc1Nc1ncc(Cl)c(Nc2ccccc2C(C)=O)n1 (stereo not shown) [Compound T-233] ; field requested: IC50
10 to 100 nM

Values were extracted from patent US20250129086A1.
